Please respond with reported Cmax for every item in the list.
PROCEDURE SUMMARY: Cmax in Sprague-Dawley rat at 2.5 mg/kg, iv by LC-MS/MS method
Format: ADME, organism-based
Design: dose 2.5 mg/kg, route intravenous
CONDITION INFO: in vivo
// note: answer is a bare numeric in ng/mL

Annotate the compound CC(C)(C)NC[C@H](O)COc1ccc2c(=O)cc(-c3cc(OCc4ccccc4)cc(OCc4ccccc4)c3)oc2c1 with its measured Cmax.
523

Annotate the compound CC(C)NC[C@H](O)COc1ccc2c(=O)cc(-c3cc(O)cc(O)c3)oc2c1 with its measured Cmax.
1810

* * *

PROCEDURE SUMMARY: Tmax in Sprague-Dawley rat at 25 mg/kg, po by LC-MS/MS method
Type: ADME, organism-based
Design: dose 25 mg/kg, route oral
CONDITION INFO: in vivo
REPORTED ENDPOINT: Tmax (h)
// note: answer is a bare numeric in h

Annotate the molecule CC(C)NC[C@H](O)COc1ccc2c(=O)cc(-c3cc(O)cc(O)c3)oc2c1 with its measured Tmax.
0.33

Annotate the molecule CC(C)(C)NC[C@H](O)COc1ccc2c(=O)cc(-c3cc(OCc4ccccc4)cc(OCc4ccccc4)c3)oc2c1 with its measured Tmax.
8
